measurement_target: Progesterone receptor (Homo sapiens, UniProt P06401); further: assay procedure not described here
Sequence (P06401 whole entry): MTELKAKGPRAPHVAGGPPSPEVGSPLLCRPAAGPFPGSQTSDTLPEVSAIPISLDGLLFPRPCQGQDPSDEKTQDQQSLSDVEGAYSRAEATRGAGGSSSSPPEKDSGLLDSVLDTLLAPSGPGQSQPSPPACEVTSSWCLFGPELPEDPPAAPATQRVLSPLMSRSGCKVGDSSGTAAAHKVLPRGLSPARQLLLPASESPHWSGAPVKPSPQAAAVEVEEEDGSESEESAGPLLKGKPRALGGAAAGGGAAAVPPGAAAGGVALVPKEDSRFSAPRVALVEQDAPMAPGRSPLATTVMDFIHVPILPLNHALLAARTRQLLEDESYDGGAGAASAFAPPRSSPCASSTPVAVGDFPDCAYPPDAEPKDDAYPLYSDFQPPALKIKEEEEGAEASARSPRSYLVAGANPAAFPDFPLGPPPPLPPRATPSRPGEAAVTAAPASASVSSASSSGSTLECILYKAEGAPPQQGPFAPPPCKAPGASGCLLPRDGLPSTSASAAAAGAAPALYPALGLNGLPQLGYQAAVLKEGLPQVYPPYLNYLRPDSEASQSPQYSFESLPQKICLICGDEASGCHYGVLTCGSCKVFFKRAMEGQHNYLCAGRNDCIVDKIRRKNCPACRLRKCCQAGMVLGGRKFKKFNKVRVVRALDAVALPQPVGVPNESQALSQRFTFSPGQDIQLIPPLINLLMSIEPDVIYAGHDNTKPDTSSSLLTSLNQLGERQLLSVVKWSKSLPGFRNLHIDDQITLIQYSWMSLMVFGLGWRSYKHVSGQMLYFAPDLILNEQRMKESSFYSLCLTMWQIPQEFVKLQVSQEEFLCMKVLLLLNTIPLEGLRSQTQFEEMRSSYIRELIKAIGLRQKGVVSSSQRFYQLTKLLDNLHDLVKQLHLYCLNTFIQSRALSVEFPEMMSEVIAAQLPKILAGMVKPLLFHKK
Assay type: functional
assay_endpoint: AC50

INSERT INTO measurements (compound, result) VALUES
  ('CC(N)C12CC3CC(CC(C3)C1)C2 (stereo not given)', '> 10 µM'),
  ('CC(CCc1ccc(O)cc1)NCCc1ccc(O)c(O)c1 (stereo not given)', '> 30 µM'),
  ('OCc1cc(C(O)CNCCCCCCOCCCCc2ccccc2)ccc1O (stereo not given)', '> 30 µM'),
  ('C#CCOc1ccc(N)cc1C(=O)NCCCC [PARSALMIDE]', '> 30 µM'),
  ('CC(=O)[C@]1(O)Cc2c(O)c3c(c(O)c2[C@@H](O[C@H]2C[C@H](N)[C@H](O)[C@H](C)O2)C1)C(=O)c1ccccc1C3=O', '5.8 µM');

###

Reported AC50 for target or system Alpha-1A adrenergic receptor (Homo sapiens, UniProt P35348), by entry. Further: assay procedure not described here.
assay_endpoint: AC50

INSERT INTO results (compound, measurement_target, assay_endpoint, result) VALUES
  ('CN1CCC(=C2c3ccccc3CCc3cccnc32)CC1', 'Alpha-1A adrenergic receptor (Homo sapiens, UniProt P35348)', 'AC50', '8.64 µM'),
  ('COc1ccccc1OCCNCC(O)COc1cccc2[nH]c3ccccc3c12 (configuration not stated)', 'Alpha-1A adrenergic receptor (Homo sapiens, UniProt P35348)', 'AC50', '0.0194 µM'),
  ('Cc1onc(-c2ccccc2)c1-c1ccc(S(N)(=O)=O)cc1', 'Alpha-1A adrenergic receptor (Homo sapiens, UniProt P35348)', 'AC50', '> 10 µM'),
  ('CC1OC2(CS1)CN1CCC2CC1 (configuration not stated)', 'Alpha-1A adrenergic receptor (Homo sapiens, UniProt P35348)', 'AC50', '> 30 µM'),
  ('C[C@H]1c2cccc(O)c2C(=O)C2=C(O)[C@]3(O)C(=O)C(C(N)=O)=C(O)[C@@H](N(C)C)[C@@H]3[C@@H](O)[C@@H]21', 'Alpha-1A adrenergic receptor (Homo sapiens, UniProt P35348)', 'AC50', '3.4 µM'),
  ('CC(=O)OCC(=O)[C@@]1(O)[C@H](C)C[C@H]2[C@@H]3CCC4=CC(=O)C=C[C@]4(C)[C@@]3(F)[C@@H](O)C[C@@]21C [DEXAMETHASONE ACETATE]', 'Alpha-1A adrenergic receptor (Homo sapiens, UniProt P35348)', 'AC50', '> 10 µM'),
  ('CC1=C(C)C(=O)C(C(CCCCCC(=O)O)c2ccccc2)=C(C)C1=O (configuration not stated)', 'Alpha-1A adrenergic receptor (Homo sapiens, UniProt P35348)', 'AC50', '> 30 µM'),
  ('CC(C)(C)C(=O)OCC(=O)[C@H]1CC[C@H]2[C@@H]3CCC4=CC(=O)CC[C@]4(C)[C@H]3CC[C@]12C [DESOXYCORTICOSTERONE PIVALATE]', 'Alpha-1A adrenergic receptor (Homo sapiens, UniProt P35348)', 'AC50', '> 10 µM'),
  ('C=CCNc1nc(NCC=C)nc(N2CCN(C(c3ccc(F)cc3)c3ccc(F)cc3)CC2)n1', 'Alpha-1A adrenergic receptor (Homo sapiens, UniProt P35348)', 'AC50', '> 30 µM'),
  ('Cc1cc2cc3c(C)cc(=O)oc3c(C)c2o1', 'Alpha-1A adrenergic receptor (Homo sapiens, UniProt P35348)', 'AC50', '> 10 µM'),
  ('CCCCCC(=O)O[C@]1(C(C)=O)CC[C@H]2[C@@H]3CCC4=CC(=O)CC[C@]4(C)[C@H]3CC[C@@]21C [HYDROXYPROGESTERONE CAPROATE]', 'Alpha-1A adrenergic receptor (Homo sapiens, UniProt P35348)', 'AC50', '> 30 µM'),
  ('CCC(=O)O[C@H]1CC[C@H]2[C@@H]3CCC4=CC(=O)CC[C@]4(C)[C@H]3CC[C@]12C [TESTOSTERONE PROPIONATE]', 'Alpha-1A adrenergic receptor (Homo sapiens, UniProt P35348)', 'AC50', '> 10 µM'),
  ('CC12CC3CC(C)(C1)CC(N)(C3)C2 [MEMANTINE]', 'Alpha-1A adrenergic receptor (Homo sapiens, UniProt P35348)', 'AC50', '> 10 µM'),
  ('CCC(=O)O[C@]1(C(=O)SCF)[C@H](C)C[C@H]2[C@@H]3C[C@H](F)C4=CC(=O)C=C[C@]4(C)[C@@]3(F)[C@@H](O)C[C@@]21C [FLUTICASONE PROPIONATE]', 'Alpha-1A adrenergic receptor (Homo sapiens, UniProt P35348)', 'AC50', '> 10 µM'),
  ('Clc1ccc(C(Cn2ccnc2)OCc2ccsc2Cl)c(Cl)c1 (configuration not stated)', 'Alpha-1A adrenergic receptor (Homo sapiens, UniProt P35348)', 'AC50', '13.5 µM'),
  ('CC(N)C(O)c1ccccc1 (configuration not stated)', 'Alpha-1A adrenergic receptor (Homo sapiens, UniProt P35348)', 'AC50', '> 10 µM'),
  ('CCCN[C@H]1CCc2nc(N)sc2C1 [PRAMIPEXOLE]', 'Alpha-1A adrenergic receptor (Homo sapiens, UniProt P35348)', 'AC50', '> 10 µM');
